The reported numbers originate from patent US5292737A.

Molecular target: PKC isoenzyme γ (Homo sapiens, UniProt P05129)
Construct: made in house; host or cells: baculovirus-insect cell expression system
Assay: Protein kinase C inhibition assay, PKC isoenzyme γ
Assay type: biochemical
Details: read-out: IC50 PKC γ
pIC50: −log10 of the molar value.
measured endpoint: pIC50

- COc1cnc(NS(=O)(=O)c2ccc(N=C3C=C(Nc4ccc(S(=O)(=O)Nc5ncc(OC)cn5)cc4)C(=O)c4ccccc43)cc2)nc1 [Compound 3h]: 4.26
- COc1cc(NS(=O)(=O)c2ccc(N=C3C=C(Nc4ccc(S(=O)(=O)Nc5cc(OC)cc(OC)c5)cc4)C(=O)c4ccccc43)cc2)cc(OC)c1 [Compound 6af]: 4.22
- Cc1cc(C)nc(NC(=O)c2ccc(N=C3C=C(Nc4ccc(C(=O)Nc5cc(C)cc(C)n5)cc4)C(=O)c4ccccc43)cc2)c1: 4.15
